Listing of entries alongside the reported MIC.
- System: Escherichia coli
- test description: Antibacterial activity against Escherichia coli MTCC 443 after 24 hrs by broth microdilution method
- Format: functional
- setup conditions: MTCC 443, 24 h
Answer in µg/mL, number only, no unit symbol.

compound	MIC / µg/mL
O=C(N[C@H](CO)[C@H](O)c1ccc([N+](=O)[O-])cc1)C(Cl)Cl	50
Cc1nn(-c2ccccc2Cl)c2c1[C@@H]1c3c(ccc4c(C)cc(=O)oc34)OC[C@@H]1CO2	125
Cc1nn(-c2ccccc2)c2c1[C@@H]1c3c(ccc4c(C)cc(=O)oc34)OC[C@@H]1C(C)(C)O2	250
Cc1nn(-c2cccc(Cl)c2)c2c1[C@@H]1c3cc4cccc(C)c4nc3SC[C@@H]1CO2	250
Cc1cc(=O)oc2c3c(ccc12)OC[C@H]1[C@@H]3c2c(-c3ccccc3)nn(-c3ccccc3)c2OC1(C)C	125

Assay Escherichia coli, sample Cc1nn(-c2cc(Cl)ccc2Cl)c2c1[C@@H]1c3cc4cccc(C)c4nc3SC[C@@H]1CO2 , MIC read: 62.5

Assay Escherichia coli, sample Cc1nn(-c2ccccc2)c2c1[C@@H]1c3cc4cccc(C)c4nc3SC[C@@H]1C(C)(C)O2 (single isomer, unassigned) , MIC read: 200

Assay Escherichia coli, sample CCn1cc(C(=O)O)c(=O)c2cc(F)c(N3CCNCC3)cc21 , MIC read: 10

---

- test description: Antioxidant activity assessed as ascorbic acid equivalent ferric ion reducing activity per 100 gram at 200 ug/ml by FRAP assay
- Format: functional
quantity kind: Activity
Don't forget the unit after the number, please.

compound	result
Cc1nn(-c2ccccc2)c2c1[C@@H]1c3c(ccc4c(C)cc(=O)oc34)OC[C@@H]1C(C)(C)O2	146 mmol
Cc1ccc(-n2nc(C)c3c2OC(C)(C)[C@H]2CSc4nc5c(C)cccc5cc4[C@@H]32)cc1 (single isomer, unassigned)	161 mmol
Cc1nn(-c2ccccc2)c2c1[C@@H]1c3cc4ccccc4nc3SC[C@@H]1CO2	126 mmol
Cc1nn(-c2ccc([N+](=O)[O-])cc2)c2c1[C@@H]1c3cc4cccc(C)c4nc3SC[C@@H]1CO2	49.8 mmol
Cc1nn(-c2ccccc2)c2c1[C@@H]1c3c(ccc4c(C)cc(=O)oc34)OC[C@@H]1CO2	120 mmol
Cc1nn(-c2cc(Cl)ccc2Cl)c2c1[C@@H]1c3cc4ccccc4nc3SC[C@@H]1CO2	158 mmol

Recorded result, Cc1cccc2cc3c(nc12)SC[C@@H]1COc2c(c(-c4ccccc4)nn2-c2ccccc2)[C@H]31 , Activity: 101 mmol

Recorded result, Cc1nn(-c2ccccc2)c2c1[C@@H]1c3cc4cccc(C)c4nc3SC[C@@H]1CO2 , Activity: 160 mmol

---

- System: Streptococcus pneumoniae
- test description: Antibacterial activity against Streptococcus pneumoniae MTCC 1936 after 24 hrs by broth microdilution method
- Type: functional
- setup conditions: MTCC 1936, 24 h
quantity kind: MIC
Don't forget the unit after the number, please.

Some molecules with known MIC results, for comparison:
molecule	result
O=C(O)c1cn(C2CC2)c2cc(N3CCNCC3)c(F)cc2c1=O [CIPROFLOXACIN]	50 µg/mL
Cc1nn(-c2cccc(Cl)c2)c2c1[C@@H]1c3c(ccc4c(C)cc(=O)oc34)OC[C@@H]1CO2	62.5 µg/mL
Cc1nn(-c2ccccc2Cl)c2c1[C@@H]1c3c(ccc4c(C)cc(=O)oc34)OC[C@@H]1CO2	100 µg/mL
Cc1ccc(-n2nc(C)c3c2OC(C)(C)[C@H]2COc4ccc5c(C)cc(=O)oc5c4[C@@H]32)cc1	100 µg/mL
Cc1nn(-c2ccccc2)c2c1[C@@H]1c3cc4cccc(C)c4nc3SC[C@@H]1C(C)(C)O2 (single isomer, unassigned)	100 µg/mL
Cc1nn(-c2ccccc2)c2c1[C@@H]1c3c(ccc4c(C)cc(=O)oc34)OC[C@@H]1C(C)(C)O2	200 µg/mL
Cc1ccc(-n2nc(C)c3c2OC[C@H]2CSc4nc5c(C)cccc5cc4[C@@H]32)cc1	200 µg/mL
Cc1nn(-c2cccc(Cl)c2)c2c1[C@@H]1c3cc4cccc(C)c4nc3SC[C@@H]1CO2	250 µg/mL
Cc1nn(-c2ccccc2)c2c1[C@@H]1c3cc4ccccc4nc3SC[C@@H]1CO2	200 µg/mL
Cc1nn(-c2ccccc2Cl)c2c1[C@@H]1c3cc4ccccc4nc3SC[C@@H]1CO2	100 µg/mL

Recorded result, CCn1cc(C(=O)O)c(=O)c2cc(F)c(N3CCNCC3)cc21 [NORFLOXACIN] , MIC: 10 µg/mL

Recorded result, O=C(N[C@H](CO)[C@H](O)c1ccc([N+](=O)[O-])cc1)C(Cl)Cl [CHLORAMPHENICOL] , MIC: 50 µg/mL

Recorded result, Cc1nn(-c2ccccc2)c2c1[C@@H]1c3cc4cccc(C)c4nc3SC[C@@H]1CO2 , MIC: 250 µg/mL

Recorded result, Cc1nn(-c2cc(Cl)ccc2Cl)c2c1[C@@H]1c3c(ccc4c(C)cc(=O)oc34)OC[C@@H]1CO2 , MIC: 200 µg/mL

Recorded result, Cc1nn(-c2ccc(Cl)c(Cl)c2)c2c1[C@@H]1c3c(ccc4c(C)cc(=O)oc34)OC[C@@H]1C(C)(C)O2 , MIC: 250 µg/mL

Recorded result, Cc1ccc(-n2nc(C)c3c2OC[C@H]2CSc4nc5ccccc5cc4[C@@H]32)cc1 , MIC: 62.5 µg/mL

Recorded result, Cc1ccc(-n2nc(C)c3c2OC[C@H]2COc4ccc5c(C)cc(=O)oc5c4[C@@H]32)cc1 , MIC: 250 µg/mL

---

Listing of entries alongside the reported inhibition at 250 µg/mL.
- Test system: Mycobacterium tuberculosis
- test description: Antimycobacterial activity against Mycobacterium tuberculosis H37Rv at 250 ug/ml
- Assay type: functional
Answer in %, number only, no unit symbol.

compound	result
Cc1nn(-c2ccccc2Cl)c2c1[C@@H]1c3c(ccc4c(C)cc(=O)oc34)OC[C@@H]1CO2	30

Assay Mycobacterium tuberculosis, sample Cc1cccc2cc3c(nc12)SC[C@@H]1COc2c(c(-c4ccccc4)nn2-c2ccccc2)[C@H]31 , inhibition at 250 µg/mL read: 9

---

- Tested on: Escherichia coli
- test description: Antibacterial activity against Escherichia coli MTCC 443 after 24 hrs by broth microdilution method
- Assay type: functional
- setup conditions: MTCC 443, 24 h
quantity kind: MIC (µg/mL)
Answer in µg/mL, number only, no unit symbol.

Some compounds with known MIC results, for comparison:
Cc1nn(-c2cc(Cl)ccc2Cl)c2c1[C@@H]1c3c(ccc4c(C)cc(=O)oc34)OC[C@@H]1C(C)(C)O2 100
Cc1nn(-c2ccccc2Cl)c2c1[C@@H]1c3c(ccc4c(C)cc(=O)oc34)OC[C@@H]1C(C)(C)O2 125
Cc1nn(-c2cc(Cl)ccc2Cl)c2c1[C@@H]1c3c(ccc4c(C)cc(=O)oc34)OC[C@@H]1CO2 125
Cc1cccc2cc3c(nc12)SC[C@@H]1COc2c(c(-c4ccccc4)nn2-c2ccccc2)[C@H]31 100
Cc1ccc(-n2nc(C)c3c2OC[C@H]2COc4ccc5c(C)cc(=O)oc5c4[C@@H]32)cc1 200
Cc1nn(-c2ccc([N+](=O)[O-])cc2)c2c1[C@@H]1c3c(ccc4c(C)cc(=O)oc34)OC[C@@H]1C(C)(C)O2 200

Switching to the query record.
Assay Escherichia coli, sample Cc1cc(=O)oc2c3c(ccc12)OC[C@@H]1COc2c(c(-c4ccccc4)nn2-c2ccccc2)[C@H]31 , MIC read: 62.5

---

- Test system: Vibrio cholerae
- test description: Antibacterial activity against Vibrio cholerae MTCC 3906 after 24 hrs by broth microdilution method
- Type: functional
- setup conditions: MTCC 3906, 24 h
quantity kind: MIC

Some compounds with known MIC results, for comparison:
Cc1nn(-c2cccc(Cl)c2)c2c1[C@@H]1c3c(ccc4c(C)cc(=O)oc34)OC[C@@H]1CO2 250 µg/mL
Cc1ccc(-n2nc(C)c3c2OC(C)(C)[C@H]2COc4ccc5c(C)cc(=O)oc5c4[C@@H]32)cc1 500 µg/mL
c1ccc(-c2nn(-c3ccccc3)c3c2[C@@H]2c4cc5ccccc5nc4SC[C@@H]2CO3)cc1 250 µg/mL
Cc1nn(-c2cccc(Cl)c2)c2c1[C@@H]1c3c(ccc4c(C)cc(=O)oc34)OC[C@@H]1C(C)(C)O2 250 µg/mL
Cc1nn(-c2ccccc2)c2c1[C@@H]1c3c(ccc4c(C)cc(=O)oc34)OC[C@@H]1CO2 250 µg/mL

Recorded result, CC1(C)S[C@@H]2[C@H](NC(=O)[C@H](N)c3ccccc3)C(=O)N2[C@H]1C(=O)O , MIC: 100 µg/mL

Recorded result, Cc1nn(-c2ccc(Cl)c(Cl)c2)c2c1[C@@H]1c3c(ccc4c(C)cc(=O)oc34)OC[C@@H]1CO2 , MIC: 125 µg/mL

Recorded result, Cc1cc(=O)oc2c3c(ccc12)OC[C@@H]1COc2c(c(-c4ccccc4)nn2-c2ccccc2)[C@H]31 , MIC: 100 µg/mL
